Measured values drawn from paper PMC2843925 for this set.

Value Kind: Ki (µM)
Give the value in µM but do not write µM after it.

Query: // map C[C@@H](CN1CCC(Cc2ccccc2)CC1)[C@@H](O)c1ccc(O)cc1.Cl (relative stereo) [MI-4] to recorded Ki (system: hNET (Homo sapiens, UniProt P23975))
Sequence (P23975 whole entry): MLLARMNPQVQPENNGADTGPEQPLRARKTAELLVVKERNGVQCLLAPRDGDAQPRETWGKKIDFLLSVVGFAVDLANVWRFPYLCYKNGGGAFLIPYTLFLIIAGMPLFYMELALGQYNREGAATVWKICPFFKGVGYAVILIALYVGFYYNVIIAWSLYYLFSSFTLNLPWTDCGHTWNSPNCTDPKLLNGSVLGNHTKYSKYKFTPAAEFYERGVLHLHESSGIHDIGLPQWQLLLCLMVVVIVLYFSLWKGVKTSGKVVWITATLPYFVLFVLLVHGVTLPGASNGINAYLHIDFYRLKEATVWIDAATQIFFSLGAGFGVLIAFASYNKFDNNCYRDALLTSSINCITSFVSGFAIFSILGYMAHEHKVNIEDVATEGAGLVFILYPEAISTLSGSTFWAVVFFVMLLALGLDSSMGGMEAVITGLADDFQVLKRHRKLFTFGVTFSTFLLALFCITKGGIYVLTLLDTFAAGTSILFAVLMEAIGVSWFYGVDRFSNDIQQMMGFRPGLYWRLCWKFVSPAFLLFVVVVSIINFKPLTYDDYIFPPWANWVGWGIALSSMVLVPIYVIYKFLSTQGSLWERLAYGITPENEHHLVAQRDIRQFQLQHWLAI
Response: 0.365
